Below is a list of entries, each paired with its recorded GI50 value.
- Test system: COLO 205
- Procedure Details: NCI tumour cell line growth inhibition, 48 h
Activity calls are given as the source filed them. No stated cut-off is given here; in the data, active = GI50 up to about 1.1 µM and inactive = higher.

Please review the following examples before continuing.
CC(=O)Oc1ccc(/C=C/C(=O)NCCOC(=O)/C=C/c2ccc(OC(C)=O)c(OC(C)=O)c2)cc1OC(C)=O; 42.5 µM (inactive)
CCN(CC)CCCC(C)Nc1ccnc(/C=C/c2ccc(Cl)cc2)c1 (stereo unspecified); 1.35 µM (inactive)
Cc1ccc2c(c1C)CC1(Cc3c(C)ccc(C)c3C1=O)C2=O (stereo unspecified); > 100 µM (inactive)
Cc1sc(C)c2c1C(=O)CC2N (stereo unspecified); 17.1 µM (inactive)
c1nc(OCC2CCCCC2)c2nc[nH]c2n1; 32 µM (inactive)

**Q:** Fill in: GI50 of COC(=O)[C@@]12C3=NO[C@]1(C(=O)OC)C(O[Si](C)(C)C(C)(C)C)[C@H]1OC(C)(C)O[C@H]1[C@@H]2C(OCc1ccccc1)CC3 (stereo partly specified) is ___
**A:** 57.1 µM (inactive)

**Q:** Try this compound too: CCOC(=O)c1nc2ccc([N+](=O)[O-])cc2c2c1CCO2
**A:** > 100 µM (inactive)

**Q:** Try this compound too: O=[N+]([O-])c1ccc(-n2nnc(C3=NCCN3)c2-c2ccc(Cl)cc2)cc1
**A:** 51.6 µM (inactive)

**Q:** Try this compound too: O=C(c1ccccc1)c1nnn(Cc2ccccc2Cn2nnc(C(=O)c3ccccc3)c2C(=O)c2ccccc2)c1C(=O)c1ccccc1
**A:** 50.5 µM (inactive)

**Q:** Try this compound too: CCOc1ccccc1/C=C1\NC(=O)N(/C=C2\C(=O)Oc3ccccc3C2=O)C1=O
**A:** 47.4 µM (inactive)

**Q:** Try this compound too: COc1ccc2c(c1)[n+]([O-])c(-c1ccc(C)cc1)c(N)[n+]2[O-]
**A:** 20.2 µM (inactive)

**Q:** Try this compound too: Nc1c(-c2ccc(Br)cc2)[n+]([O-])c2ccccc2[n+]1[O-]
**A:** > 100 µM (inactive)

**Q:** Try this compound too: O=C(O)c1ccc(OCc2nc3cc(C(F)(F)F)ccc3nc2-c2ccccc2)cc1
**A:** 19.8 µM (inactive)

**Q:** Try this compound too: CCOP(=O)(OCC)C(Nc1cccc(F)c1)c1ccc(N(C)C)cc1 (stereo unspecified)
**A:** 97.1 µM (inactive)

**Q:** Try this compound too: CCCCCCC(=O)CC(=O)C(=O)Nc1ccccc1C
**A:** > 57.1 µM (inactive)

**Q:** Try this compound too: Oc1ccc(-c2nc3ccccc3s2)cc1
**A:** 45.1 µM (inactive)

**Q:** Try this compound too: CCOc1ccccc1/N=N/c1c(-c2ccccc2)nn(C(=O)CC(=O)Nc2cccc(C)c2)c1-c1ccccc1
**A:** > 100 µM (inactive)

**Q:** Try this compound too: Cc1nc(=O)[nH]c2s/c(=N/C3CCCCC3)n(C3CCCCC3)c(=O)c12
**A:** > 100 µM (inactive)

**Q:** Try this compound too: Cc1[nH]n(-c2ccc(S(=O)(=O)O)cc2)c(=O)c1/N=N/c1ccccc1
**A:** > 100 µM (inactive)

**Q:** Try this compound too: O=C(O)c1ccc(C2=Cc3cc(Cl)ccc3OC2)cc1
**A:** > 100 µM (inactive)

**Q:** Try this compound too: Clc1ccc(C2=CC(c3ccccc3)N3C(=N[C@H]4CCCC[C@@H]43)N2)cc1 (stereo partly specified)
**A:** 1.77 µM (inactive)

====

Below is a list of entries, each paired with its recorded GI50 value.
- System: SF-539
- Procedure Details: NCI tumour cell line growth inhibition, 48 h
The source made the active and inactive calls. No stated cut-off is given here; in the data, active = GI50 up to about 1.1 µM and inactive = higher.

**Q:** Fill in: GI50 of O=C(c1no[n+]([O-])c1C(=O)c1csc2ccccc12)c1csc2ccccc12 is ___
**A:** 2.61 µM (inactive)

**Q:** Try this compound too: Cc1nc(=O)[nH]c2s/c(=N/C3CCCCC3)n(C3CCCCC3)c(=O)c12
**A:** > 100 µM (inactive)

**Q:** Try this compound too: CCC(=O)C(C(C)/C=C/CCSc1ccccc1)C(O)CCCCCC(=O)OC (centres undefined)
**A:** > 100 µM (inactive)

**Q:** Try this compound too: C[Si](C)(C)C#C[I+]c1ccccc1
**A:** 28.9 µM (inactive)

====

Below is a list of entries, each paired with its recorded GI50 value.
- Test system: OVCAR-8
- Procedure Details: NCI tumour cell line growth inhibition, 48 h
Calls of active or inactive are those of the source. Rule as the data show it: active = GI50 up to about 1.1 µM and inactive = higher.

O=C(CBr)c1ccc2cc(Br)c3ccccc3c2c1; 24.2 µM (inactive)
COc1cc(/C=C\c2ccc(O)cc2)cc(OC)c1OC; 6.95 µM (inactive)

**Q:** Fill in: GI50 of O=[N+]([O-])c1ccc2nc(-c3ccccn3)c(-c3ccccn3)nc2c1 is ___
**A:** 94 µM (inactive)

**Q:** Try this compound too: CC1CN=C(Nc2ccc(F)cc2F)S1 (centres undefined)
**A:** > 100 µM (inactive)

====

- Tested on: NCI-H23
- Procedure Details: NCI tumour cell line growth inhibition, 48 h
The source made the active and inactive calls. Cut-off read from the data, not from the text of the source: active = GI50 up to about 1.1 µM and inactive = higher.
Just give me one of these, please: 1.0 = active, 0.0 = inactive

**Q:** Test call for this compound, please: O=C(Nc1ccc(Cl)cc1Cl)c1cc2nc3ccccc3c(=O)n2c2ccccc12
**A:** 0.0

**Q:** Try this compound too: Cc1cc(C)n(C(=O)CSc2nc3ccc(I)cc3c(=O)n2Cc2ccccc2)n1
**A:** 0.0

**Q:** Try this compound too: O=c1c2cc(S(=O)(=O)Nc3ccccc3Cl)ccc2ncn1NS(=O)(=O)c1ccc(Br)cc1
**A:** 0.0

**Q:** Try this compound too: CC(C)c1ccc(/C=C2/C=C(c3ccc4ccccc4c3)OC2=O)cc1
**A:** 0.0

====

Below is a list of entries, each paired with its recorded GI50 value.
- Tested on: SNB-75
- Procedure Details: NCI tumour cell line growth inhibition, 48 h
Active and inactive are the calls of the source. No stated cut-off is given here; in the data, active = GI50 up to about 1.1 µM and inactive = higher.

Please review the following examples before continuing.
C/N=c1\ss/c(=N\C(=S)N(C)C)n1C1CCCCC1; > 10 µM (inactive)
Nc1ccccc1.O=P(O)(OP(=O)(O)c1ccccc1)c1ccccc1; > 100 µM (inactive)
CC(=O)OC(C)c1cc2c(s1)C(=O)c1c(C(C)OC(C)=O)csc1C2=O (stereo not drawn); 2.74 µM (inactive)
COC1C(OC(=S)Nc2ccccc2)c2ccccc2N1C(C)=O (stereo not drawn); > 100 µM (inactive)

**Q:** Fill in: GI50 of COC(=O)/C(=C(/C)c1ccco1)P(=O)(OC)OC is ___
**A:** > 100 µM (inactive)

**Q:** Try this molecule too: CC(C)(C)OC(=O)N1N=NC2C3OC(CC3=O)C21 (stereo not drawn)
**A:** > 100 µM (inactive)

**Q:** Try this molecule too: C[C@]12CC[C@H](O)C[C@@H]1CC[C@@H]1[C@@H]2CC[C@]2(C)[C@@H](C3=CC(=O)OC3)CC[C@]12O
**A:** 3.85 µM (inactive)

**Q:** Try this molecule too: O=CNc1ccc(S(=O)(=O)c2ccc(NC=O)cc2)cc1
**A:** 29.7 µM (inactive)

**Q:** Try this molecule too: O=C(/C=C/c1ccccc1Cl)c1ccccc1Cl
**A:** 30.3 µM (inactive)

**Q:** Try this molecule too: COc1cc2c(cc1OC)C(C(c1ccccc1)c1ccccc1)N(C)CC2 (stereo not drawn)
**A:** 49.1 µM (inactive)

**Q:** Try this molecule too: CN(C)/C(=N/C(=S)Nc1ccccc1)SCc1ccccc1
**A:** 30.3 µM (inactive)

**Q:** Try this molecule too: CCCCc1ccc(-n2sc3ncc(-c4ccccc4)cc3c2=O)cc1
**A:** > 100 µM (inactive)

**Q:** Try this molecule too: C=C(C)[C@H]1CC[C@@]2(C)C(C1)[C@H](C)CC[C@@H]2O (stereo partly drawn)
**A:** > 100 µM (inactive)

====

- Tested on: UACC-62
- Procedure Details: NCI tumour cell line growth inhibition, 48 h
Calls of active or inactive are those of the source. Rule as the data show it: active = GI50 up to about 1.1 µM and inactive = higher.
Below is a list of entries, each paired with its recorded GI50 value.

Please review the following examples before continuing.
N=C(N)SCc1cc(Cl)cc(Cl)c1O; 17.3 µM (inactive)
Cc1cccc(C)c1NC(=O)C1C(=O)N(c2c(C)cccc2C)C(=O)/C1=N\NC(N)=S (stereo not given); > 100 µM (inactive)
CSc1ccc2c(cc1=O)[C@@H](NC(=O)c1ccc([N+](=O)[O-])cc1)CCc1cc(O)c(O)c(O)c1-2; 53.3 µM (inactive)
c1ccc(-c2nnc(-c3nn(-c4ccccc4)c4nc5ccccc5nc34)o2)cc1; 69.2 µM (inactive)

Next:
**Q:** Lab request: please report GI50 under test system UACC-62 for Clc1ccc(-c2c(C3=NCCCN3)nnn2-c2ccc(Cl)cc2)cc1
**A:** 18.5 µM (inactive)
